Endpoint summary: pKi, system: Histamine H4 receptor (Homo sapiens, UniProt Q9H3N8), multiple sources combined.
pKi: −log10 of the molar value.

| compound | comparison.operator | pKi |
| --- | --- | --- |
| CCn1c(=O)[nH]c(=O)c2conc21 | < | 5.00 |
| c1cc(OCCCN2CCCCC2)ccc1CN1CCCCC1 | < | 5.00 |
| CN1CCN(C(=O)c2ccccc2Cl)CC1 | < | 4.00 |
| CN1CCN(c2nc(N)nc(-c3ccncc3)n2)CC1 | = | 5.50 |
| N[C@H](CCS(=O)(=O)O)C(=O)O | < | 5.00 |
| COCc1ccc(CN2CC[C@H](Nc3cc(NCCC(C)(C)C)ncn3)C2)o1 | = | 4.70 |
| O=C(CCCCC1CCCCC1)N1CCC(c2c[nH]cn2)CC1 | = | 6.13 |
| CSCC[C@@H](N)C(=O)O | < | 5.00 |
| CN1CCN(C(=O)c2cccc(Cl)c2)CC1 | = | 5.41 |
| NC(CSSCC(N)C(=O)O)C(=O)O (configuration not stated) | < | 5.00 |
| CN1CCN(CCCNC(=O)c2sc3cc(Cl)ccc3c2Cl)CC1 | < | 4.00 |
| CN1CCN(C(=O)c2ccc(Cl)cc2)CC1 | = | 5.12 |
| N[C@@H](CS)C(=O)O | < | 5.00 |
| N#Cc1ccc(OCCCN2CCCCC2)cc1 | < | 5.00 |
| CN1CCN(c2nc(N)nc(COc3ccc(Cl)cc3)n2)CC1 | = | 4.97 |
| CC(C)(C)CCNc1cc(N[C@H]2CCN(Cc3cccc(F)c3O)C2)ncn1 | = | 4.70 |
| CN1CCN(CCCOc2ccc(-c3nc4cc(Cl)ccc4[nH]3)cc2)CC1 | = | 6.91 |
| NC(CS(=O)O)C(=O)O (configuration not stated) | < | 5.00 |
| CN1CCC(=C2c3ccccc3C=Cc3ccccc32)CC1 | < | 5.00 |
| C[C@@H]1CC[C@@H](C)N1CCCOc1ccc(-c2ccc(C(=O)N3CCOCC3)cc2)cc1 | < | 5.00 |
| COc1ccccc1N1CCN(CCN(C(=O)C2CCCCC2)c2ccccn2)CC1 | < | 5.00 |
| N=C(N)SCCc1cnc[nH]1 | = | 8.57 |
